experimental_protocol: in vivo
setup_conditions: male, dog, in vivo, 6 mg/kg, beagle dog, fasting, single 6 mg/kg P.O; group Mean (6 animals); read-out: Blood voriconazole concentration, Time 12 hr
property_measured: concentration at 12 h (ng/mL)

- structure_smiles: "C[C@@H](c1ncncc1F)[C@](O)(Cn1cncn1)c1ccc(F)cc1F"
  property_measured: "concentration at 12 h"
  value_observed: 2180

----------
experimental_protocol: in vivo
setup_conditions: male, beagle, dog, in vivo, po, 6 mg/kg, Cmax
property_measured: Cmax (ng/mL)

- molecule: "C[C@@H](c1ncncc1F)[C@](O)(Cn1cncn1)c1ccc(F)cc1F [Voriconazole]"
  value_observed: 3670
- molecule: "C=C1CCN([C@H](C)[C@](O)(Cn2cncn2)c2ccc(F)cc2F)CC1 [Efinaconazole]"
  value_observed: 925

----------
experimental_protocol: in vivo
setup_conditions: male, dog, in vivo, 6 mg/kg, beagle dog, fasting, single 6 mg/kg P.O; group Mean (6 animals); read-out: Blood voriconazole concentration, Time 6 hr
property_measured: concentration at 6 h (ng/mL)

- structure_smiles: "C[C@@H](c1ncncc1F)[C@](O)(Cn1cncn1)c1ccc(F)cc1F"
  property_measured: "concentration at 6 h"
  value_observed: 2610

----------
experimental_protocol: in vivo
setup_conditions: male, dog, in vivo, 6 mg/kg, beagle dog, fasting, single 6 mg/kg P.O; group Mean (6 animals); read-out: Blood voriconazole concentration, Time 4 hr
property_measured: concentration at 4 h (ng/mL)

- compound: "C[C@@H](c1ncncc1F)[C@](O)(Cn1cncn1)c1ccc(F)cc1F [Voriconazole]"
  property_measured: "concentration at 4 h"
  unit_abbrev: "ng/mL"
  value_observed: 2950

----------
experimental_protocol: in vivo
setup_conditions: male, beagle, dog, in vivo, 0.5 mg/kg, Geometric Means, Cmax

- structure_smiles: "C=C1CCN([C@H](C)[C@](O)(Cn2cncn2)c2ccc(F)cc2F)CC1"
  Cmax: "318 ng/mL"

----------
experimental_protocol: in vivo
setup_conditions: male, beagle, dog, in vivo, 0.5 mg/kg, Blood efinaconazole concentration, Time 12 hr
Protocol: 24 male beagle dogs were divided into 4 groups, 6 animals per group. Voriconazole as a control drug was once administered to the animals via an oral route under fasting conditions. […] Thereafter, the pharmacokinetic (PK) profiles of the drugs were determined to calculate PK parameters of the drugs and evaluate the pharmacokinetics of the drugs. […] For intravenous administration, the doses of efinaconazole (intravenous administration group G1) were calculated based on the body weights of the animals. […]
property_measured: concentration at 12 h (ng/mL)

- compound: "C=C1CCN([C@H](C)[C@](O)(Cn2cncn2)c2ccc(F)cc2F)CC1 [Efinaconazole]"
  property_measured: "concentration at 12 h"
  value_observed: 1.36

----------
experimental_protocol: in vivo
setup_conditions: male, dog, in vivo, 6 mg/kg, beagle dog, fasting, single 6 mg/kg P.O; individual animals; read-out: Blood voriconazole concentration, Time 8 hr

- structure_smiles: "C[C@@H](c1ncncc1F)[C@](O)(Cn1cncn1)c1ccc(F)cc1F"
  unit_abbrev: "ng/mL"
  concentration at 8 h: 2430

----------
Below, each entry is listed with its recorded Cmax.
experimental_protocol: in vivo
setup_conditions: male, beagle, dog, in vivo, po, 6 mg/kg, Geometric Means, Cmax

- structure_smiles: "C=C1CCN([C@H](C)[C@](O)(Cn2cncn2)c2ccc(F)cc2F)CC1"
  unit_abbrev: "ng/mL"
  Cmax: 904
- structure_smiles: "C[C@@H](c1ncncc1F)[C@](O)(Cn1cncn1)c1ccc(F)cc1F"
  unit_abbrev: "ng/mL"
  Cmax: 3670

Cited source: patent US20250281476A1
